# ASSAY REMARKS: Selectivity index, ratio of IC50 for human MDA-MB-231 cells to IC50 for human BT-549 cells
# Assay type: functional
EXPERIMENTAL READOUT: Ratio IC50

QUERY SMILES: C[C@@H]1C[C@H](O)[C@]2(O)O[C@@H]3C[C@@]4(C=O)[C@@H](CC[C@@H]5[C@@H]4CC[C@]4(C)[C@@H](C6=CC(=O)OC6)CC[C@]54O)C[C@H]3O[C@@H]2O1
TEST RESULT: 15
--
QUERY SMILES: C[C@H]1O[C@@H](O[C@@H]2C[C@@H]3CC[C@@H]4[C@H](CC[C@]5(C)[C@@H](C6=CC(=O)OC6)CC[C@]45O)[C@@]3(C=O)C[C@H]2O)[C@H](O)[C@H](O)[C@@H]1O
TEST RESULT: 7
--
QUERY SMILES: C[C@@H]1C[C@@]2(N=CCS2)[C@]2(O)O[C@@H]3C[C@@]4(C=O)[C@@H](CC[C@@H]5[C@@H]4CC[C@]4(C)[C@@H](C6=CC(=O)OC6)CC[C@]54O)C[C@H]3O[C@@H]2O1
TEST RESULT: 7
--
QUERY SMILES: C[C@H]1O[C@@H](O[C@H]2CC[C@@]3(CO)[C@@H](CC[C@@H]4[C@@H]3CC[C@]3(C)[C@@H](C5=CC(=O)OC5)CC[C@]43O)C2)[C@H](O)[C@H](O)[C@@H]1O[C@@H]1O[C@H](CO)[C@@H](O)[C@H](O)[C@H]1O
TEST RESULT: 14

###

Reported EC50 by item:
# ASSAY REMARKS: Inhibition of porcine cerebral cortex Na+/K+-ATPase after 15 mins by ADP-Glo reagent based assay
# Design: species or system Sus scrofa
EXPERIMENTAL READOUT: EC50 (nM)

MOLECULE: C[C@@H]1C[C@H](O)[C@]2(O)O[C@@H]3C[C@@]4(C=O)[C@@H](CC[C@@H]5[C@@H]4CC[C@]4(C)[C@@H](C6=CC(=O)OC6)CC[C@]54O)C[C@H]3O[C@@H]2O1 [CALOTROPIN]
UNIT ABBREVIATION: nM
TEST RESULT: 360

MOLECULE: C[C@@H]1C[C@@]2(N=CCS2)[C@]2(O)O[C@@H]3C[C@@]4(C=O)[C@@H](CC[C@@H]5[C@@H]4CC[C@]4(C)[C@@H](C6=CC(=O)OC6)CC[C@]54O)C[C@H]3O[C@@H]2O1 [USCHARIN]
UNIT ABBREVIATION: nM
TEST RESULT: 910

MOLECULE: C[C@]12CC[C@H]3[C@@H](CC[C@H]4C[C@@H](O)CC[C@@]43CO)[C@@]1(O)CC[C@@H]2C1=CC(=O)OC1 [COROGLAUCIGENIN]
UNIT ABBREVIATION: nM
TEST RESULT: 1100

MOLECULE: C[C@H]1O[C@@H](O[C@H]2CC[C@@]3(CO)[C@@H](CC[C@@H]4[C@@H]3CC[C@]3(C)[C@@H](C5=CC(=O)OC5)CC[C@]43O)C2)[C@H](O)[C@H](O)[C@@H]1O
UNIT ABBREVIATION: nM
TEST RESULT: 500

MOLECULE: C[C@]12CC[C@H](O[C@@H]3O[C@H](CO)[C@@H](O)[C@H](O)[C@H]3O)C[C@@H]1CC[C@@H]1[C@@H]2CC[C@]2(C)[C@@H](C3=CC(=O)OC3)CC[C@]12O [DESGLUCOUZARIN]
UNIT ABBREVIATION: nM
TEST RESULT: 1100

MOLECULE: C[C@H]1O[C@H]2O[C@@H]3C[C@@H]4CC[C@@H]5[C@H](CC[C@]6(C)[C@@H](C7=CC(=O)OC7)CC[C@]56O)[C@@]4(C=O)C[C@H]3O[C@@]2(O)[C@H](O)[C@@H]1O
UNIT ABBREVIATION: nM
TEST RESULT: 300

MOLECULE: C[C@]12CC[C@H](O)C[C@@H]1CC[C@@H]1[C@@H]2CC[C@]2(C)[C@@H](C3=CC(=O)OC3)CC[C@]12O
UNIT ABBREVIATION: nM
TEST RESULT: 2100

MOLECULE: C[C@H]1O[C@@H](O[C@H]2CC[C@@]3(CO)[C@@H](CC[C@@H]4[C@@H]3CC[C@]3(C)[C@@H](C5=CC(=O)OC5)CC[C@]43O)C2)[C@H](O)[C@H](O)[C@@H]1O[C@@H]1O[C@H](CO)[C@@H](O)[C@H](O)[C@H]1O
UNIT ABBREVIATION: nM
TEST RESULT: 600

MOLECULE: C[C@H]1O[C@@H](O[C@@H]2C[C@@H]3CC[C@@H]4[C@H](CC[C@]5(C)[C@@H](C6=CC(=O)OC6)CC[C@]45O)[C@@]3(C=O)C[C@H]2O)[C@H](O)[C@H](O)[C@@H]1O
UNIT ABBREVIATION: nM
TEST RESULT: 2500

###

Reported Ratio IC50 by item:
# ASSAY REMARKS: Selectivity index, ratio of IC50 for human MDA-MB-231 cells to IC50 for human BT-549 cells
# Format: functional
EXPERIMENTAL READOUT: Ratio IC50

QUERY SMILES: C[C@]12CC[C@H](O)C[C@@H]1CC[C@@H]1[C@@H]2CC[C@]2(C)[C@@H](C3=CC(=O)OC3)CC[C@]12O
EXPERIMENTAL READOUT: Ratio IC50
OP: >
TEST RESULT: 8
//
QUERY SMILES: C[C@]12CC[C@H]3[C@@H](CC[C@H]4C[C@@H](O)CC[C@@]43CO)[C@@]1(O)CC[C@@H]2C1=CC(=O)OC1
EXPERIMENTAL READOUT: Ratio IC50
OP: =
TEST RESULT: 9
//
QUERY SMILES: C[C@H]1O[C@@H](O[C@H]2CC[C@@]3(CO)[C@@H](CC[C@@H]4[C@@H]3CC[C@]3(C)[C@@H](C5=CC(=O)OC5)CC[C@]43O)C2)[C@H](O)[C@H](O)[C@@H]1O
EXPERIMENTAL READOUT: Ratio IC50
OP: =
TEST RESULT: 10
//
QUERY SMILES: C[C@]12CC[C@H](O[C@@H]3O[C@H](CO)[C@@H](O)[C@H](O)[C@H]3O)C[C@@H]1CC[C@@H]1[C@@H]2CC[C@]2(C)[C@@H](C3=CC(=O)OC3)CC[C@]12O
EXPERIMENTAL READOUT: Ratio IC50
OP: =
TEST RESULT: 6
//
QUERY SMILES: C[C@H]1O[C@H]2O[C@@H]3C[C@@H]4CC[C@@H]5[C@H](CC[C@]6(C)[C@@H](C7=CC(=O)OC7)CC[C@]56O)[C@@]4(C=O)C[C@H]3O[C@@]2(O)[C@H](O)[C@@H]1O
EXPERIMENTAL READOUT: Ratio IC50
OP: =
TEST RESULT: 13
